Where do these numbers come from? They come from patent US20260242419A1.

Reported values of MRC5 IC50 for individual entries
- subject-of-test: Recombinant human IL-1β (BioLegend 579404) (human, UniProt P01584 117-269)
- method-notes: cell-based or functional assay
Starred links: 1 amine or outer side, 2 acyl side, 3 side chain; linkers in the order of their positions; H or OH if unused. Non-standard residues stand in square brackets, D forms with d. DabMe3 = [(3S)-3-amino-4-oxo-butyl]-trimethyl-ammonium, C[N+](C)(C)CC[C@H](N[*:1])C(=O)[*:2]; 4PyrimAla = (2S)-2-amino-3-pyrimidin-4-yl-propanoic acid, O=C([C@H](Cc1ccncn1)N[*:1])[*:2]; dPro(4R-(4-pyridylmethyl)) = O=C(O)[C@H]1C[C@@H](Cc2ccncc2)CN1; Trp(βS-Me,4-F) = C[C@@H](c1c[nH]c2cccc(F)c12)[C@H](N)C(=O)O; Bip(4'-COOH) = N[C@@H](Cc1ccc(-c2ccc(C(=O)O)cc2)cc1)C(=O)O; Ala(1-bicyclo(1.1.1)pentyl) = N[C@@H](CC12CC(C1)C2)C(=O)O; dPro(4R-Bzl(4-F)) = O=C(O)[C@H]1C[C@@H](Cc2ccc(F)cc2)CN1; 1Nal(3S-Me) = C[C@@H](c1cccc2ccccc12)[C@H](N)C(=O)O; Ala(pyrimidin-5-yl) = N[C@@H](Cc1cncnc1)C(=O)O; Phe(4-COOH) = N[C@@H](Cc1ccc(C(=O)O)cc1)C(=O)O; Bip = N[C@@H](Cc1ccc(-c2ccccc2)cc1)C(=O)O; Pro(cis-4-F) = O=C(O)[C@@H]1C[C@H](F)CN1; Dap(CONH2) = NC(=O)NC[C@H](N)C(=O)O; d(αMeD) = C[C@@](N)(CC(=O)O)C(=O)O; 4Pal = N[C@@H](Cc1ccncc1)C(=O)O; aThr = C[C@H](O)[C@H](N)C(=O)O; dDap = NC[C@@H](N)C(=O)O; Dab = NCC[C@H](N)C(=O)O; Aib = CC(C)(N)C(=O)O
Give the value, in units of nM, as a plain number.

binder: cyclo([Bip][Ala(1-bicyclo(1.1.1)pentyl)][Phe(4-COOH)]G[Pro(cis-4-F)][Trp(βS-Me,4-F)][Aib]SW[d(αMeD)][Ala(pyrimidin-5-yl)]Q[Dab]G[dPro(4R-(4-pyridylmethyl))]) (ring closure inferred) [SEQ ID NO 343]
MRC5 IC50 (nM): 0.026
--
binder: cyclo([Bip][4Pal][Phe(4-COOH)]G[Pro(cis-4-F)][Trp(βS-Me,4-F)][Aib]SW[d(αMeD)][dDap]Q[Dap(CONH2)]G[dPro(4R-(4-pyridylmethyl))]) (ring closure inferred) [SEQ ID NO 246]
MRC5 IC50 (nM): 0.031
--
binder: cyclo([Bip][4Pal][Phe(4-COOH)]G[Pro(cis-4-F)][1Nal(3S-Me)][Aib]SW[d(αMeD)][Ala(pyrimidin-5-yl)]Q[Dab]G[dPro(4R-(4-pyridylmethyl))]) (ring closure inferred) [SEQ ID NO 291]
MRC5 IC50 (nM): 0.018
--
binder: cyclo([Bip(4'-COOH)][Ala(1-bicyclo(1.1.1)pentyl)][Phe(4-COOH)]G[Pro(cis-4-F)][Trp(βS-Me,4-F)][Aib]SW[d(αMeD)][4PyrimAla]Q[Dab]G[dPro(4R-(4-pyridylmethyl))]) (ring closure inferred) [SEQ ID NO 285]
MRC5 IC50 (nM): 0.013
--
binder: cyclo([Bip(4'-COOH)][4Pal][Phe(4-COOH)]G[Pro(cis-4-F)][Trp(βS-Me,4-F)][Aib]SW[Aib][DabMe3]Q[Dab]G[dPro(4R-Bzl(4-F))]) (ring closure inferred; not fully specified (N-terminus); printed as cyclic, Bip4CO2H-4Pal-Phe4COOH-G-Proc4F-sbMeW4F-Aib-S-W-Aib-DabMe3-Q-Dab-G-dProc4Bn4F) [SEQ ID NO 314]
MRC5 IC50 (nM): 0.02

In the following, a different binder is considered.
Prompt: Assign MRC5 IC50 to the following record: cyclo([Bip][4Pal][Phe(4-COOH)]G[Pro(cis-4-F)][1Nal(3S-Me)][Aib]SW[d(αMeD)][aThr]Q[Dab]G[dPro(4R-(4-pyridylmethyl))]) (ring closure inferred) [SEQ ID NO 288]
Response: 0.019
